assay-metric: melting point

Exercise: Entry under review: O=C(O)Cc1ccc2c(c1)CCC(c1ccccc1F)N2 (centres undefined) . Reported melting point?
Solution: 117 to 118 °C

Exercise: Field request: melting point | item: CCCOCCOc1ccc(-c2ccc3c(c2)C=C(C(=O)Nc2ccc(CN(C)C4CCOCC4)cc2)CCS3(=O)=O)cc1C
Solution: 192 to 195 °C

Exercise: Tell me the measured melting point of c1ccc2c(c1)CC(N1CCN(c3ccc4c(c3)OCCO4)CC1)C2 , please.
Solution: 183 to 185 °C

Exercise: Bench note: what melting point did O=C(O)CCc1cnoc1-c1ccc(F)c(F)c1 show?
Solution: 102 to 103 °C

Exercise: Field request: melting point | item: CCc1nc2c(cnn2CC)c(NC2CCOCC2)c1CNC(=O)c1cccc(C(=O)NCc2ccc(F)c(-c3cccc(CN4CC5CC4CN5)c3)c2)c1 (centres undefined)
Solution: 129 to 133 °C

Exercise: # melting point lookup, item CC(C)Oc1ccc(/C=C(\NC(=O)c2ccc(OCCc3ccc4ccccc4c3)cc2)C(=O)NCCO)cc1
Solution: 78 to 79 °C

Exercise: What does the record list as melting point for O=C(Nc1ccc(OCCN2CCOCC2)c2ccccc12)NC1CC1c1ccccc1 (centres undefined) ?
Solution: 156 to 157 °C

Exercise: Which melting point is reported for this compound? COC(=O)c1ccc2oc(CCC=O)cc2c1
Solution: 48 to 49 °C

Exercise: Value lookup for melting point; key = COCCc1nc2c(N)nc3ccccc3c2n1CCCCCCCCNS(=O)(=O)c1ccccc1
Solution: 146 to 149 °C

Exercise: Looking for the measured melting point of CCOC(=O)c1sc(OCC)nc1-c1ccccc1 , can you help?
Solution: 32 to 34 °C

Exercise: Reported melting point for Cn1cc(C(O)(c2ccc3c(cnn3C(=O)OC3CCC3)c2)C(F)(F)F)c2ccccc21 (centres undefined) : what is it?
Solution: 82 to 84 °C

Exercise: Field request: melting point | item: O=C1OC(c2ccccc2)=NC1=Cc1cc(Cl)ccc1Sc1cccs1
Solution: 125 to 127 °C

Exercise: Name the reported melting point value associated with the compound Cc1nnnn1-c1ncccc1C(=O)O
Solution: 178 to 180 °C

Exercise: Name the recorded melting point for CCCCCCCCCCCCCCCCCCOc1cc(C(=O)OC)cc(C(=O)N(CC(=O)OCC)CC(=O)OCC)c1 .
Solution: 57 to 60 °C

Exercise: Name the reported melting point value associated with the compound CCCCNC(=O)c1cccc(S(=O)(=O)NC(=O)c2ccc(C(=O)NCC(=O)OC)nc2)c1
Solution: 198 to 200 °C

Exercise: Give its melting point value. Item: COCC1CN(c2ccc(C3CCC(CCNC(C)=O)CC3)cc2)C(=O)O1 (racemic)
Solution: 120 to 122 °C

Exercise: Suppose we examine the compound COC(=O)CCc1cc(C(=O)c2ccc(OC)cc2)c(OC)cc1OC ; what melting point value has been reported?
Solution: 114 to 117 °C

Exercise: For the compound shown here, Cc1cc(-c2cc(COS(C)(=O)=O)c(=O)n(Cc3ccc(Cl)cc3)n2)ccc1F , give the reported melting point.
Solution: 132 to 133 °C

Exercise: Looking for the measured melting point of CCOC(=O)c1cn(C)c2cnc3cc(N4CCCC(C)(C)C4)c(F)cc3c2c1=O , can you help?
Solution: 198 to 200 °C

Exercise: May I ask what melting point has been recorded for CCOC(=O)c1n[nH]c(C(=O)OCC)c1C(=O)c1ccc(Cl)cc1[N+](=O)[O-] ?
Solution: 168 °C

Exercise: Fill in: melting point of COc1ccc(CCc2ccc3ccc(C(=O)NCC(O)c4ccccc4)c(O)c3n2)cc1 (centres undefined) is ___
Solution: 69 to 72 °C

Exercise: Given Cc1nc(-c2ccc(OCCCc3ccccc3)cc2)no1 , state its recorded melting point.
Solution: 78.5 to 79 °C

Exercise: Fill in the blank: the reported melting point of CS(=O)(=O)NC(=O)CNC(=O)NCCCCC1CCSS1 (centres undefined) is ____.
Solution: 157 to 158 °C

Exercise: Which melting point value is on record for Cc1nc(N2CCN(Cc3ccc(F)cc3)C2=O)sc1C(=O)NCc1ccc(C(F)F)o1 ?
Solution: 173 to 174 °C

Exercise: Please look up its melting point: CCOC(=O)c1cnn(C)c1NC(=O)Nc1ccccc1
Solution: 151 to 153 °C

Exercise: Give the measured melting point of CCCOc1cc([N+](=O)[O-])cc2cc(C(=O)OC)oc12 .
Solution: 157 °C

Exercise: I'd like to know its melting point. The compound in question is CCCNc1cn(-c2cccnc2)nc1Cl
Solution: 92 to 94 °C

Exercise: Could you share which melting point value was measured for CC1(C)COc2cc3c(cc21)C1(CO3)C(=O)N(Cc2ccc(C(F)(F)F)o2)c2ccccc21 (centres undefined) ?
Solution: 155 to 160 °C

Exercise: Can you share its melting point? I mean this compound: O=C(O)COc1cccc2c1CCc1sc(SCCCC(c3ccccc3)c3ccccc3)nc1-2
Solution: 136 to 138 °C

Exercise: # get_value(readout='melting point', item= COc1ccc(C#Cc2ccc(C(=O)O)s2)cc1C12CC3CC(CC(C3)C1)C2 )
Solution: 244 to 245 °C

Exercise: Entry COc1cc(C)nc(NC(=O)NS(=O)(=O)c2ccccc2N=NN(C)C)n1 : reported melting point = ?
Solution: 158 to 160 °C

Exercise: Could you tell me which melting point is on file for Cc1cn(C(C(=O)N(C)C)C2CCCCC2)nc1-c1ccccc1 (centres undefined) ?
Solution: 102 to 104 °C

Exercise: Consider the compound shown here: Cc1nc(N2CCNCC2)c2nc(-c3ccccc3)cc-2[nH]1 What is its recorded melting point?
Solution: 236 °C

Exercise: Recorded melting point of CCCc1nnc(/C=C/c2nc(-c3ccccc3)oc2COc2ccc(OCc3nc(-c4ccccc4)oc3C)cc2)o1 , please.
Solution: 119 to 120 °C

Exercise: Can you share its melting point? I mean this compound: CC(C)(Oc1ccc(Cl)cc1)C(C)(O)c1cccnc1 (centres undefined)
Solution: 140 to 141 °C

Exercise: // melting point lookup, key: CC(C)(CNC(=O)c1ccccc1-c1ccccc1C(=O)O)SN=O
Solution: 121 to 123 °C

Exercise: # lookup: melting point of C1=Cn2ccnc2Cc2ccccc21
Solution: 85.5 °C

Exercise: If you can, please state the reported melting point value of O=C(Cc1ccc(-c2ccc(C(CC3CCOCC3)c3ccc(S(=O)(=O)C4CC4)cc3)[nH]2)nc1)N1CCC1 (centres undefined) .
Solution: 94 to 98 °C

Exercise: GET /values?readout=melting point&item= O=C1C=CC(OC2CCCC2)N1 (centres undefined)
Solution: 81 to 82 °C
